Target: HLA-A*3101 (human)
Assay: competition with 125I probe peptide for purified HLA
Settings: remark: other sources report otherwise
What IC50 was measured for each of the following?
Give the number; nM is assumed, so skip it.

INPUT: Which IC50 is reported for this binder? RVLTLFNVTR [CEA.554.V2]
OUTPUT: 9

INPUT: Which IC50 is reported for this binder? RTLTLFNVTR [CEA.554]
OUTPUT: 5

INPUT: Which IC50 is reported for this binder? RTLTLLSVTR [CEA.376]
OUTPUT: 6.2
